# ASSAY_METHOD_TEXT: inhibitors of PAF-induced NFkB signaling in CF airway cells, dose response, cell-based, uHTS hits, panel, cytotoxicity readout (AID 624344)
# MEASUREMENT_PARAMETERS: CF bronchial epithelial cells, PAF-induced NFkB reporter inhibition, with PAF, run 1; at 79 µM (top of the series) unless noted
READOUT_LABEL: inhibition (%)
One number for each entry, in %.

Guide cases for inhibition, answers given:
- MOLECULE: "COC(=O)c1ccc(-c2ccc(OC)c([C@H]3[C@H]4C=CC[C@@H](C)[C@@H]4C(=O)N3Cc3ccccc3)c2)cc1"
  READOUT_LABEL: "inhibition"
  RECORDED_RESULT: 111
- MOLECULE: "COC(=O)N1C(=O)[C@@](c2ccccc2)(C(C)C)N1C(=O)OC"
  READOUT_LABEL: "inhibition"
  RECORDED_RESULT: 107
- MOLECULE: "NC(c1csc(NC(=O)Nc2cccc(Cl)c2)n1)c1ccccc1Cl (stereo unspecified)"
  READOUT_LABEL: "inhibition"
  RECORDED_RESULT: 96.3

For every listed record, write down its inhibition.
1. COc1cc2c(c(OC)c1OC)-c1ccc(SC)c(=O)cc1C(NC(=O)C(F)(F)F)CC2 (stereo unspecified)
2. COc1cccc(OC)c1C(=O)Nc1cc(C)nn1-c1nc2ccccc2[nH]1
3. CC1(C)Cc2c(ccc3ccccc23)C(=O)N1
4. COc1cccc(-c2nnc3sc(C4CCCCC4)nn23)c1
5. Cc1ccc(C(C(=O)NCc2ccccc2)N(Cc2cccs2)C(=O)c2ccc3c(c2)OCCO3)cc1 (stereo unspecified)
6. CC1CCCCN1c1ncnc(N)c1[N+](=O)[O-] (stereo unspecified)
7. CCOC(=O)Cc1nnc2c(Nc3ccc(Cl)cc3)nc3nonc3n12

1. 72.8
2. 111
3. 106
4. 111
5. 106
6. 113
7. 110

For every listed record, write down its inhibition.
1. Cc1ccc(-c2onc3ccc(C(=O)/C=C/N(C)C)cc23)cc1
2. C[C@@H]1CN([C@H](C)CO)C(=O)c2cc(NC(=O)Nc3ccc(C(F)(F)F)cc3)ccc2O[C@H]1CN(C)S(=O)(=O)c1ccccc1

101
92

For every listed record, write down its inhibition.
1. COCc1cc(S(=O)c2ccc(Cl)cc2)nc(C)n1 (stereo unspecified)
2. CC(C)(C)C(=O)/C(=C/c1ccncc1)n1cncn1

1: 103; 2: 98.3

----------
# TARGET_OR_TEST_SYSTEM: Caspase-3 (Homo sapiens) (UniProt P42574)
# Sequence (P42574 28-227 limits assumed): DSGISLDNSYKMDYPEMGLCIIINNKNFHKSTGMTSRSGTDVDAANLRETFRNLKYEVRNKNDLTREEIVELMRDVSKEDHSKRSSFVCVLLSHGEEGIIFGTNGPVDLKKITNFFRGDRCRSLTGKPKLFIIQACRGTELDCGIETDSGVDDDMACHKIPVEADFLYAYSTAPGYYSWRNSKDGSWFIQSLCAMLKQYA
# ASSAY_METHOD_TEXT: caspase-3 protease inhibitors, confirmation, selectivity assay for SENP inhibitor project, biochemical, single concentration (AID 488918);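 also: plate controls were enzyme with DMSO for no effect and wells without caspase-3 for full effect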
# MEASUREMENT_PARAMETERS: purified caspase-3, Z-DEVD-aminoluciferin luminescence, 60 min; at 12.5 µM
The list shows a part of the results. Active and inactive are the calls of the source.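 How the source made its calls: active means mean inhibition above about 50% (limit read from the data); inactive means the rest.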
Answer with one of the outcomes given here: y (active), n (inactive)

- MOLECULE: "Cc1ccc(C(=O)O/N=C(\\N)c2ccccn2)cc1Cl"
  TARGET_OR_TEST_SYSTEM: "Caspase-3 (Homo sapiens) (UniProt P42574)"
  CLASS_NAME: "y"
- MOLECULE: "CCc1ccc(NC(=O)C(=O)NNC(=O)c2cccs2)cc1"
  TARGET_OR_TEST_SYSTEM: "Caspase-3 (Homo sapiens) (UniProt P42574)"
  CLASS_NAME: "y"
- MOLECULE: "Cc1cccc(NC(=O)COc2ccc(Br)cc2C)n1"
  TARGET_OR_TEST_SYSTEM: "Caspase-3 (Homo sapiens) (UniProt P42574)"
  CLASS_NAME: "n"
- MOLECULE: "Oc1ccc(N=Nc2nccs2)c(O)c1"
  TARGET_OR_TEST_SYSTEM: "Caspase-3 (Homo sapiens) (UniProt P42574)"
  CLASS_NAME: "y"
- MOLECULE: "COc1ccc(C(=O)COC(=O)c2ccc([N+](=O)[O-])s2)cc1OC"
  TARGET_OR_TEST_SYSTEM: "Caspase-3 (Homo sapiens) (UniProt P42574)"
  CLASS_NAME: "n"

For the next question, use this molecule.
Dear all, I need the recorded test outcome for COCCN(CCOC)c1nc(N)c2c(N)nc3c(c2c1C#N)CC(=O)N3Cc1ccc(Cl)cc1 , thank you. n
